target: Rho-associated protein kinase 2 (Rattus norvegicus, UniProt Q62868)
Sequence (Q62868 whole entry): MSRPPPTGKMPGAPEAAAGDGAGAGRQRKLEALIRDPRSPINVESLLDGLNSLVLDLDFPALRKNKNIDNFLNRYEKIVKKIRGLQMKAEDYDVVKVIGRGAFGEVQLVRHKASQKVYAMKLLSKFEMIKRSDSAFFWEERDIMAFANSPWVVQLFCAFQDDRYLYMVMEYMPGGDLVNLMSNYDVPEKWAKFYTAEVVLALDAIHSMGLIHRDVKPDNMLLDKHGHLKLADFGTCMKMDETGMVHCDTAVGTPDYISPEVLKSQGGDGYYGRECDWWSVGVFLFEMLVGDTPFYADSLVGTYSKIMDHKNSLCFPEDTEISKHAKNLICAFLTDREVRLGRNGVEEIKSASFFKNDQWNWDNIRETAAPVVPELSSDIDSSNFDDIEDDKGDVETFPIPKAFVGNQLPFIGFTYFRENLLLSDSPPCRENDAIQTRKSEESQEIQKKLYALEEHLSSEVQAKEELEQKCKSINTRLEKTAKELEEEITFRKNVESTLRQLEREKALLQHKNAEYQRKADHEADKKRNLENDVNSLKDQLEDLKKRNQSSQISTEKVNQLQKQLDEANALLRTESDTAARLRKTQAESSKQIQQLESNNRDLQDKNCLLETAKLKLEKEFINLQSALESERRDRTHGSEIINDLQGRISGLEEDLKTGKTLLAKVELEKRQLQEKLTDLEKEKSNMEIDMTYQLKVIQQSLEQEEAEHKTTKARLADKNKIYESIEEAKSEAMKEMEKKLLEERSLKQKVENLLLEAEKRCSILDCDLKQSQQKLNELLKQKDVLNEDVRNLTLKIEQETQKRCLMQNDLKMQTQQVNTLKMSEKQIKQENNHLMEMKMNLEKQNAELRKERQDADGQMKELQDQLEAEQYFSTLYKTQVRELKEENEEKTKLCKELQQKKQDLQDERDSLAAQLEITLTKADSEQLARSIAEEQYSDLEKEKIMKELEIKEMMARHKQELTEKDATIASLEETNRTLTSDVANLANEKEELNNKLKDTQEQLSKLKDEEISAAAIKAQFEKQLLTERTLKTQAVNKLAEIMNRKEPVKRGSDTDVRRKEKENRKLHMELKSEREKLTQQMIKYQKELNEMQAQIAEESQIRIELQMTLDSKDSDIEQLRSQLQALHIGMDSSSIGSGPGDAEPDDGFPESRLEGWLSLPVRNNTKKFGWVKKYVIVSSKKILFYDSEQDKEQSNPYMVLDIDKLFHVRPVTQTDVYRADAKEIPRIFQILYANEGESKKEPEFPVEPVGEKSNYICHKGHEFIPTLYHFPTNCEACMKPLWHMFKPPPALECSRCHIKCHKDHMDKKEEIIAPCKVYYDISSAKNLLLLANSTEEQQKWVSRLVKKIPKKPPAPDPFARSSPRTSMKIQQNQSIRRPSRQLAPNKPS
METRIC NAME: IC50

**Q:** Form field: reported IC50 of `Cc1c[nH]c2nccc(Oc3c(F)cc(Nc4cc(Cl)nc(N)n4)cc3F)c12`
**A:** < 1 nM

---

target: Sigma non-opioid intracellular receptor 1 (Homo sapiens); test: GPCRScan assay: inhibition of Sigma 1
Sequence (Q99720 whole entry): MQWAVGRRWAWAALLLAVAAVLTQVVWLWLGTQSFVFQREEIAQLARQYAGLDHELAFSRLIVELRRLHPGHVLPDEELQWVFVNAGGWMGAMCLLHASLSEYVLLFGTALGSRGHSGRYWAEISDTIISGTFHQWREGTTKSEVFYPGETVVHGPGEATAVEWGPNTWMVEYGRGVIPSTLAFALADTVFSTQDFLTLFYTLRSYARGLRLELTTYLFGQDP
METRIC NAME: Ki (µM)
Numbers only, in µM.

**Q:** Form field: reported Ki of `Cc1c[nH]c2nccc(Oc3c(F)cc(Nc4cc(Cl)nc(N)n4)cc3F)c12`
**A:** 6.77

---

system: T47D; experiment: Breast T-47D cell line MDS Pharma Services Proliferation Assay; type: functional, cell-based, Homo sapiens; details: Homo sapiens, T47D
METRIC NAME: IC50 (µM)
One number for each entry, in µM.

**Q:** Form field: reported IC50 of `Cc1c[nH]c2nccc(Oc3c(F)cc(Nc4cc(Cl)nc(N)n4)cc3F)c12`
**A:** 2.9

Data provenance: ChEMBL document CHEMBL4507274
